Counter-ions that a name gives are not always drawn.
Please provide measured melting point for the entries that follow.

Known results for molecules:
[[record]]
molecule = "Cc1ccccc1-c1cc(F)cc2c1OC(CN)C2 (single isomer, unassigned; (+)) (as salt: hydrochloride) [Example 105]"
readout_value = "227 to 230 °C"

[[record]]
molecule = "NCC1Cc2cccc(-c3ccc(Cl)cc3Cl)c2O1 (single isomer, unassigned; (+)) (as salt: hydrochloride) [Example 150]"
readout_value = "201 to 204 °C"


Next:
Measured melting point of Cc1ccc(-c2cccc3c2CC(CN)O3)cc1 (racemic) (as salt: hydrochloride) : 239 to 241 °C

====

# TESTED TARGET: human 5-HT2C receptor (Homo sapiens)
# ASSAY COMMENT: 5-HT2C receptor-stimulated calcium mobilization (FLIPR) in CHO cells
# Assay type: cell-based
# PARTICULARS: calcium mobilization, CHO cells stably expressing human 5-HT2C; read-out: 5-HT2C Function EC50
pEC50: −log10 of the molar value.
Assign class by pEC50: not lower than 7 means 1.0; lower than 7 means 0.0.

[[record]]
molecule = "Fc1cc2c(c(-c3c(Cl)cccc3Cl)c1)OC(CNC1CCC1)C2 (racemic) [Example 233]"
class_name = 0.0

[[record]]
molecule = "Fc1cc2c(c(-c3c(Cl)cccc3Cl)c1)OC(CN1CCCCC1)C2 (racemic) [Example 238]"
class_name = 0.0

[[record]]
molecule = "COc1cc2c(c(-c3ccccc3OC)c1)OC(CCN)C2 (racemic) [Example 554]"
class_name = 1.0

[[record]]
molecule = "COc1cc2c(c(-c3c(C)cccc3C)c1)OC(CN)C2 (racemic) [Example 374]"
class_name = 1.0

[[record]]
molecule = "CNCC1Cc2cc(OC)cc(-c3c(C)cccc3C)c2O1 (racemic) [Example 504]"
class_name = 1.0

[[record]]
molecule = "CC(C)(C)c1cc(Cl)cc2c1OC(CN)C2 (single isomer, unassigned; (+)) [Example 29]"
class_name = 0.0


Could you now consider this next molecule?
Does pEC50 meet or surpass 7 for COc1ccccc1-c1cc(Cl)cc2c1OC(CN)C2 (racemic) [Example 242] ?
1.0

====

Structures can show the parent of a compound that is named as a salt.
Please respond with reported melting point for every item in the list.

Give measured melting point for every item shown.
1. NCC1Cc2cccc(-c3cccc(C(F)(F)F)c3)c2O1 (single isomer, unassigned; (-)) (as salt: hydrochloride) [Example 135]
2. Cc1cccc(-c2cccc3c2OC(CN)C3)c1 (single isomer, unassigned; (+)) (as salt: hydrochloride) [Example 42]
3. COc1cc2c(c(C(C)(C)C)c1)OC(CN)C2 (single isomer, unassigned; (-)) (as salt: hydrochloride) [Example 115]
4. Cc1ccccc1-c1cc(F)cc2c1OC(CN)C2 (racemic) (as salt: hydrochloride) [Example 104]

1. 184 to 186 °C
2. 196 to 198 °C
3. 157 to 159 °C
4. 229 to 234 °C

Give one value of melting point per listed compound.
1. CC(C)c1ccccc1-c1cccc2c1OC(CN)C2 (racemic) (as salt: hydrochloride) [Example 61]
2. Cc1ccc(Cl)cc1-c1cc(F)cc2c1O[C@@H](CN)C2 (as salt: hydrochloride)
3. Cc1ccccc1-c1c(Cl)ccc2c1OC(CN)C2 (racemic) (as salt: hydrochloride)

202 to 204 °C
148 to 150 °C
204 to 206 °C

====

Give Emax for every item shown.
# TESTED TARGET: human 5-HT2C receptor (Homo sapiens, UniProt P28335)
# ASSAY COMMENT: 5-HT2C receptor-stimulated calcium mobilization (FLIPR) in CHO cells
# Type: cell-based
# PARTICULARS: CHO, percentage of the response observed with a maximally effective concentration of 5-HT; read-out: 5-HT2C Function Emax (%)
Give bare numbers, in %.

Solved cases below.
[[record]]
compound = "CNCC1Cc2cc(F)cc(-c3ccccc3F)c2O1 (racemic)"
readout_value = 70

[[record]]
compound = "CNCC1Cc2cccc(-c3c(C)cccc3C)c2O1 (racemic)"
readout_value = 80

[[record]]
compound = "COc1cc2c(c(-c3cccc(C)c3C)c1)OC(CN)C2 (racemic)"
readout_value = 70

[[record]]
compound = "Cc1ccc(-c2cc(C)cc3c2OC(CN)C3)cc1 (racemic)"
readout_value = 80

[[record]]
compound = "CNCC1Cc2cccc(-c3cc(Cl)ccc3Cl)c2O1 (racemic)"
readout_value = 92

[[record]]
compound = "Cc1cc2c(c(-c3ccccc3Cl)c1)OC(CN)C2 (racemic)"
readout_value = 100


Give me Emax for each of these compounds, listed below.
1. NCC1Cc2cc(F)cc(-c3ccc(F)cc3F)c2O1 (racemic)
2. COc1cc2c(c(-c3cccc(Cl)c3Cl)c1)OC(CN)C2 (racemic)
3. NCC1Cc2cc(C(F)(F)F)cc(-c3cccnc3)c2O1 (racemic)
4. CNCC1Cc2cc(Cl)cc(-c3ccc(Cl)cc3Cl)c2O1 (racemic)
5. NCC1Cc2cc(Cl)cc(-c3cccc(Cl)c3Cl)c2O1 (racemic)
6. CNCC1Cc2cccc(-c3ccccc3OC)c2O1 (racemic)

[80, 70, 90, 80, 90, 90]

====

I'd be grateful if you could share measured log10 EC50 for these entries.
# TESTED TARGET: human 5-HT2C receptor (Homo sapiens, UniProt P28335)
# ASSAY COMMENT: 5-HT2C receptor-stimulated calcium mobilization (FLIPR) in CHO cells;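 also: Fluo-3-AM fluorescence read on FLIPR every 1 s, agonist added after 10 baseline reads, response taken as peak minus lowest raw fluorescence count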
# Format: cell-based
# PARTICULARS: calcium mobilization, CHO cells stably expressing human 5-HT2C; read-out: 5-HT2C Function EC50
Form field - Quantity: EC50; Unit: µM; Scale: log10

[[record]]
compound = "CNCC1Cc2ccc(F)c(-c3ccccc3C)c2O1 (racemic) [Example 401]"
property = "log10 EC50"
readout_value = -3.15

[[record]]
compound = "Fc1cc2c(c(-c3c(Cl)cccc3Cl)c1)OC(CNC1CC1)C2 (racemic) [Example 231]"
property = "log10 EC50"
readout_value = -3.40

[[record]]
compound = "CNCC1Cc2cc(F)cc(-c3cccc(OC)c3OC)c2O1 (racemic) [Example 444]"
property = "log10 EC50"
readout_value = -1.43

[[record]]
compound = "NCC1Cc2cc(C(F)(F)F)cc(-c3ccccc3F)c2O1 (racemic) [Example 313]"
property = "log10 EC50"
readout_value = -1.15


Entry Cc1cc2c(c(-c3cccc(Cl)c3)c1)OC(CN)C2 (racemic) [Example 288] under human 5-HT2C receptor (Homo sapiens, UniProt P28335) had log10 EC50 of -1.42

====

# TESTED TARGET: human 5-hydroxytryptamine-2C (h5-HT2C) receptor (Homo sapiens)
# Sequence (P28335 33-458): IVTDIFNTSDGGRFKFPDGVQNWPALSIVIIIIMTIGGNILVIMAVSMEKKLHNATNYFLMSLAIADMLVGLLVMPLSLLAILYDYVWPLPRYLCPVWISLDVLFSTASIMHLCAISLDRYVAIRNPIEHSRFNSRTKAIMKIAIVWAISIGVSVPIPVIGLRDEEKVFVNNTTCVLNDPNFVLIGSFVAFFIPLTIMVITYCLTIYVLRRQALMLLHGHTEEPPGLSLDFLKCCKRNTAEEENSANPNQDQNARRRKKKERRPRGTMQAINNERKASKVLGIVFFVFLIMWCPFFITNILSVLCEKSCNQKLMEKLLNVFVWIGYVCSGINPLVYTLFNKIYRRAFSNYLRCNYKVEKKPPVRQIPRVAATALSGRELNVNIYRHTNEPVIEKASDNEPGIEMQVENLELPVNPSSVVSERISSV
PROPERTY: pKd
Answers are plain numbers, as −log10 of the molar value.

According to the records, this compound COc1cc(CC(C)N)c(OC)cc1I (stereo not shown) [[^125I] DOI, reference compound] displays pKd of 9.40

====

# TESTED TARGET: human 5-HT2C receptor (Homo sapiens)
# ASSAY COMMENT: 5-HT2C receptor-stimulated calcium mobilization (FLIPR) in CHO cells
# Format: cell-based
# PARTICULARS: CHO, percentage of the response observed with a maximally effective concentration of 5-HT; read-out: 5-HT2C Function Emax (%)
PROPERTY: Emax (%)
One number for each entry, in %.

[[record]]
compound = "COc1ccccc1-c1cccc2c1OC(CN)C2 (racemic) [Example 59]"
property = "Emax"
unit_of_measure = "%"
readout_value = 100

[[record]]
compound = "CC(C)c1cc2c(c(-c3ccccc3Cl)c1)OC(CN)C2 (racemic) [Example 308]"
property = "Emax"
unit_of_measure = "%"
readout_value = 90

[[record]]
compound = "COc1cc2c(c(-c3cc(Cl)ccc3Cl)c1)OC(CN)C2 (racemic) [Example 367]"
property = "Emax"
unit_of_measure = "%"
readout_value = 100

[[record]]
compound = "CNCC1Cc2cc(C)cc(-c3ccc(C)cc3)c2O1 (racemic) [Example 480]"
property = "Emax"
unit_of_measure = "%"
readout_value = 70

[[record]]
compound = "NCC1Cc2cc(C(F)(F)F)cc(-c3cc(Cl)ccc3Cl)c2O1 (racemic) [Example 337]"
property = "Emax"
unit_of_measure = "%"
readout_value = 90


Dear colleague, could you send me Emax for each of the items below? Thanks.
1. CNCC1Cc2cc(C)cc(-c3c(C)cccc3C)c2O1 (racemic) [Example 489]
2. Cc1ccc(C)c(-c2cc(F)cc3c2OC(CN)C3)c1 (racemic) [Example 222]
3. CNCC1Cc2cccc(-c3ccc(Cl)cc3Cl)c2O1 (racemic) [Example 425]

1. 90
2. 80
3. 100
